test: solubility (physicochemical properties); conditions: polar organic solvents
Square brackets hold non-standard residues; d marks the D form. Peptide text beside a SMILES is read from it. Hyp = O=C(O)[CH]1C[CH](O)CN1; Phe(ol) = N[CH](CO)Cc1ccccc1; Iva = CC[C](C)(N)C(=O)O; Aib = CC(C)(N)C(=O)O
Assay readout: solubility in polar organic solvents

CCC(C)C(NC(=O)C(C)(C)NC(=O)C(CCC(N)=O)NC(=O)C(C)(CC)NC(=O)C(Cc1ccccc1)NC(C)=O)C(=O)NC(C(=O)NC(C)(C)C(=O)NC(CC(C)C)C(=O)NC(C)(C)C(=O)N1CC(O)CC1C(=O)NC(CCC(N)=O)C(=O)NC(C)(C)C(=O)N1CC(O)CC1C(=O)NC(C)(C)C(=O)N1CCCC1C(=O)NC(Cc1ccccc1)C(=O)NC(CO)C(=O)O)C(C)O (centres unmarked) [Cephaibol P] (Ac-F[Iva]Q[Aib]IT[Aib]L[Aib][Hyp]Q[Aib][Hyp][Aib]PFS-OH; configuration not given here)
soluble
CCC(C)(NC(=O)C(CC(C)C)NC(=O)CNC(=O)C(C)(C)NC(=O)C(C)(C)NC(=O)C(C)(C)NC(=O)C(C)(C)NC(=O)C(Cc1ccccc1)NC(C)=O)C(=O)NC(C)(C)C(=O)N1CC(O)CC1C(=O)NC(CCC(N)=O)C(=O)NC(C)(C)C(=O)N1CC(O)CC1C(=O)NC(C)(C)C(=O)N1CCCC1C(=O)NC(CO)Cc1ccccc1 (centres unmarked) [Cephaibol C] (Ac-F[Aib][Aib][Aib][Aib]GL[Iva][Aib][Hyp]Q[Aib][Hyp][Aib]P[Phe(ol)]; configuration not given here)
soluble

====

assay: solubility (physicochemical properties); settings: water
Square brackets hold non-standard residues; d marks the D form. Peptide text beside a SMILES is read from it. Hyp = O=C(O)[CH]1C[CH](O)CN1; Phe(ol) = N[CH](CO)Cc1ccccc1; Iva = CC[C](C)(N)C(=O)O; Aib = CC(C)(N)C(=O)O
Assay readout: solubility in water

CCC(C)(NC(=O)C(CC(C)C)NC(=O)C(C)NC(=O)C(C)(C)NC(=O)C(C)(C)NC(=O)C(C)(C)NC(=O)C(C)(C)NC(=O)C(Cc1ccccc1)NC(C)=O)C(=O)NC(C)(C)C(=O)N1CC(O)CC1C(=O)NC(CCC(N)=O)C(=O)NC(C)(CC)C(=O)N1CC(O)CC1C(=O)NC(C)(C)C(=O)N1CCCC1C(=O)NC(CO)Cc1ccccc1 (centres unmarked) [Cephaibol A1] (Ac-F[Aib][Aib][Aib][Aib]AL[Iva][Aib][Hyp]Q[Iva][Hyp][Aib]P[Phe(ol)]; configuration not given here)
only slightly soluble
CCC(C)(NC(=O)C(CC(C)C)NC(=O)CNC(=O)C(C)(C)NC(=O)C(C)(C)NC(=O)C(C)(C)NC(=O)C(C)(C)NC(=O)C(Cc1ccccc1)NC(C)=O)C(=O)NC(C)(C)C(=O)N1CC(O)CC1C(=O)NC(CCC(N)=O)C(=O)NC(C)(CC)C(=O)N1CC(O)CC1C(=O)NC(C)(C)C(=O)N1CCCC1C(=O)NC(CO)Cc1ccccc1 (centres unmarked) [Cephaibol A] (Ac-F[Aib][Aib][Aib][Aib]GL[Iva][Aib][Hyp]Q[Iva][Hyp][Aib]P[Phe(ol)]; configuration not given here)
only slightly soluble

====

test: stability (physicochemical properties); conditions: in neutral, mildly acidic and mildly alkaline medium
Square brackets hold non-standard residues; d marks the D form. Peptide text beside a SMILES is read from it. Hyp = O=C(O)[CH]1C[CH](O)CN1; Phe(ol) = N[CH](CO)Cc1ccccc1; Iva = CC[C](C)(N)C(=O)O; Aib = CC(C)(N)C(=O)O
Assay readout: stability

CCC(C)C(NC(=O)C(C)(C)NC(=O)C(CCC(N)=O)NC(=O)C(C)(CC)NC(=O)C(Cc1ccccc1)NC(C)=O)C(=O)NC(C(=O)NC(C)(C)C(=O)NC(CC(C)C)C(=O)NC(C)(C)C(=O)N1CCCC1C(=O)NC(CCC(N)=O)C(=O)NC(C)(C)C(=O)N1CC(O)CC1C(=O)NC(C)(C)C(=O)N1CCCC1C(=O)NC(Cc1ccccc1)C(=O)NC(CO)C(=O)O)C(C)O (stereo not drawn) [Cephaibol Q] (Ac-F[Iva]Q[Aib]IT[Aib]L[Aib]PQ[Aib][Hyp][Aib]PFS-OH; configuration not given here)
stable
CCC(C)C(NC(=O)C(C)(C)NC(=O)C(CCC(N)=O)NC(=O)C(C)(CC)NC(=O)C(Cc1ccccc1)NC(C)=O)C(=O)NC(C(=O)NC(C)(C)C(=O)NC(CC(C)C)C(=O)NC(C)(C)C(=O)N1CC(O)CC1C(=O)NC(CCC(N)=O)C(=O)NC(C)(C)C(=O)N1CC(O)CC1C(=O)NC(C)(C)C(=O)N1CCCC1C(=O)NC(Cc1ccccc1)C(=O)NC(CO)C(=O)O)C(C)O (stereo not drawn) [Cephaibol P] (Ac-F[Iva]Q[Aib]IT[Aib]L[Aib][Hyp]Q[Aib][Hyp][Aib]PFS-OH; configuration not given here)
stable
CCC(C)(NC(=O)C(CC(C)C)NC(=O)CNC(=O)C(C)(C)NC(=O)C(C)(C)NC(=O)C(C)(C)NC(=O)C(C)(C)NC(=O)C(Cc1ccccc1)NC(C)=O)C(=O)NC(C)(C)C(=O)N1CC(O)CC1C(=O)NC(CCC(N)=O)C(=O)NC(C)(C)C(=O)N1CC(O)CC1C(=O)NC(C)(C)C(=O)N1CCCC1C(=O)NC(CO)Cc1ccccc1 (stereo not drawn) [Cephaibol C] (Ac-F[Aib][Aib][Aib][Aib]GL[Iva][Aib][Hyp]Q[Aib][Hyp][Aib]P[Phe(ol)]; configuration not given here)
stable
